tested on: rats; assay: Respiratory depression by blood gas (pCO2) monitoring in rats; format: in vivo; details: rat, intravenous
measurement_label: Safety Ratio (respiratory depression ED50 divided by analgesia ED50)
Numbers only.

Below, each entry is followed by its recorded Safety Ratio (respiratory depression ED50 divided by analgesia ED50) result.
compound: C=CCN1C[C@H](C)N([C@@H](c2ccsc2)c2cccc(O)c2)C[C@H]1C (racemic) [Compound 4]
reported_result: 2.4
--
compound: C=CCN1C[C@H](C)N([C@@H](c2ccsc2)c2cccc(O)c2)C[C@H]1C [Compound 5]
reported_result: 2.2
--
compound: C=CCN1C[C@H](C)N([C@H](c2ccsc2)c2cccc(O)c2)C[C@H]1C
reported_result: 15.7

Identify measured Safety Ratio (respiratory depression ED50 divided by analgesia ED50) corresponding to C=CCN1C[C@@H](C)N([C@@H](c2ccsc2)c2cccc(O)c2)C[C@@H]1C (racemic)
4.7
